Target: TIP-1 (Homo sapiens, UniProt O14907)
pKi: −log10 of the molar value. Where a SMILES comes first, the peptide text is derived from it. [ ]: non-standard residue; d: D form. The star is where a group is joined. X2 = CC(C)(C)c1ccc2cc(C(=O)*)[nH]c2c1; Tle = CC(C)(C)[C@H](N)C(=O)O; Pip = O=C(O)[C@@H]1CCCCN1; Dap = NC[C@H](N)C(=O)O
Documented pKi across a set of compounds
Endpoint: pKi

compound="CC(=O)N[C@@H](CNC(=O)c1cc2ccc(C(C)(C)C)cc2[nH]1)C(=O)N1CCC[C@H]1C(=O)N[C@H](C(=O)N[C@H](C(=O)N[C@@H](CCCNC(=N)N)C(=O)N[C@H](C(=O)O)C(C)C)[C@@H](C)O)C(C)C [Ac-[DAP-BIC] PVTRV] (Ac-[Dap](X2)PVTRV-OH)" target_of_assay="TIP-1 (Homo sapiens, UniProt O14907)" meas_value=3.49
compound="CC(C)[C@H](NC(=O)[C@H](CCCNC(=N)N)NC(=O)[C@@H](NC(=O)[C@@H](NC(=O)[C@@H]1CCCCN1C(=O)[C@H](Cc1c[nH]c2ccccc12)NC(=O)[C@H](CCCNC(=N)N)NC(=O)[C@H](CO)NC(=O)[C@H](CC(N)=O)NC(=O)[C@H](C)N)C(C)C)[C@@H](C)O)C(=O)O [ANSRW [PA] VTRV] (H-ANSRW[Pip]VTRV-OH; N-terminus and C-terminus assumed)" target_of_assay="TIP-1 (Homo sapiens, UniProt O14907)" meas_value=5.59
compound="CC(C)[C@H](NC(=O)[C@H](CCC(N)=O)NC(=O)[C@H](Cc1c[nH]c2ccccc12)NC(=O)[C@H](CCCNC(=N)N)NC(=O)[C@H](CO)NC(=O)[C@H](CC(N)=O)NC(=O)[C@H](C)N)C(=O)N[C@H](C(=O)N[C@@H](CCCNC(=N)N)C(=O)N[C@H](C(=O)O)C(C)(C)C)[C@@H](C)O [ANSRWQVTR [TBG]] (H-ANSRWQVTR[Tle]-OH; N-terminus and C-terminus assumed)" target_of_assay="TIP-1 (Homo sapiens, UniProt O14907)" meas_value=6.15

###

Target: CAL PDZ (Homo sapiens, UniProt Q9HD26)
Test: competitive fluorescence polarization binding, CAL PDZ
pKi: −log10 of the molar value. Where no end group is shown, it is not given here.
Endpoint: pKi

substance=ANSRLPTSK(Ac)I endpoint=pKi meas_value=4.49

###

Target protein (sequence): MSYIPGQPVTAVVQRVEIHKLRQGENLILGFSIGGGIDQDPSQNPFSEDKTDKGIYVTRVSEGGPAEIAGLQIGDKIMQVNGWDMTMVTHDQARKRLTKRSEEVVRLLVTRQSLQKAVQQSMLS
pKi: −log10 of the molar value.
Endpoint: pKi

smiles_repr=CC[C@H](C)[C@H](NC(=O)[C@@H](NC(=O)[C@H](CO)NC(=O)[C@@H](NC(=O)[C@@H]1CCCN1C(=O)[C@H](CC(C)C)NC(=O)[C@H](CCCNC(=N)N)NC(=O)[C@H](CO)NC(=O)[C@H](CC(N)=O)NC(=O)[C@H](C)N)[C@@H](C)O)[C@@H](C)CC)C(=O)O meas_value="< 2.30"

Data provenance is patent US10744180B2.
